MEASURED TARGET: Neurotensin receptor type 2 (Rattus norvegicus)
Sequence (whole entry): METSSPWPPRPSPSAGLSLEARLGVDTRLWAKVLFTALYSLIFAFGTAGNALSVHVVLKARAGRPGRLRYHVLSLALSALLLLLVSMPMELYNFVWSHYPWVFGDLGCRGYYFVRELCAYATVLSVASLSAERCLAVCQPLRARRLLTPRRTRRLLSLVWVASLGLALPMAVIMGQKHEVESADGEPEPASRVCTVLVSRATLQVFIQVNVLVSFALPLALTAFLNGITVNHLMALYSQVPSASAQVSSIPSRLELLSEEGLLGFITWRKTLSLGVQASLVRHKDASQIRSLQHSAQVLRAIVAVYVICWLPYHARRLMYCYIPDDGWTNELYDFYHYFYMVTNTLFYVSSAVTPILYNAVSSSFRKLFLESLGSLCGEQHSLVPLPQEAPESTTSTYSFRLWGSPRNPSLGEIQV
EXPERIMENTAL PROTOCOL: Agonist activity at rat NTS2 stably expressed in CHOK1 cells assessed as induction of calcium release by FLIPR assay relative to SR142948a
Assay type: functional, cell-based
STUDY CONDITIONS: CHO-K1
REPORTED ENDPOINT: Emax (%)
Answer with a number only, understood to be in %.

Query block: Please list Emax recorded for the compound O=C(N[C@H](C(=O)O)C1CCCCC1)c1cc(-c2c(F)cccc2F)n(-c2ccnc3cc(Cl)ccc23)n1
Result block: 15

Query block: Look up and state reported Emax for COc1ccccc1-c1cc(C(=O)N[C@H](C(=O)O)C2CCCCC2)nn1-c1cccc2ccccc12
Result block: 18

Query block: Given the compound COc1ccccc1-c1cc(C(=O)N[C@H](C(=O)O)C2CCCCC2)nn1-c1ccnc2cc(Cl)ccc12 , write its reported Emax.
Result block: 25

Query block: For COc1cccc(OC)c1-c1cc(C(=O)NC2(C(=O)O)CCCCC2)nn1-c1cccc2ccccc12 , write its Emax.
Result block: 35

###

MEASURED TARGET: Neurotensin receptor type 2 (Rattus norvegicus) (UniProt Q63384)
Sequence (whole entry): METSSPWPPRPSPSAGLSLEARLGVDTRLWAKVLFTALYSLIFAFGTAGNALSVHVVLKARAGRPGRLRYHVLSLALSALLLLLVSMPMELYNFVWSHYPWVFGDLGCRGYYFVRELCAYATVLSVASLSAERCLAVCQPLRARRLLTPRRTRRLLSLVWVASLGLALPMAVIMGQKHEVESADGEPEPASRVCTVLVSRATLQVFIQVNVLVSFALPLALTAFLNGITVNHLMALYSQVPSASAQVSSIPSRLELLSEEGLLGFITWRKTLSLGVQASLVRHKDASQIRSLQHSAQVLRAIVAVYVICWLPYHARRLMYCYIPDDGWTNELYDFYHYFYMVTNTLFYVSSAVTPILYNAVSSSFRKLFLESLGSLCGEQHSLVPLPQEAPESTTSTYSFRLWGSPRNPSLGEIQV
EXPERIMENTAL PROTOCOL: Agonist activity at rat NTS2 stably expressed in CHOK1 cells assessed as induction of calcium release by FLIPR assay relative to SR142948a
Assay type: functional, cell-based
STUDY CONDITIONS: CHO-K1
Please assign no whenever Emax is at or above 40%, and yes whenever it is below.

Query block: Identify whether the compound COc1ccc(OC)c(-c2cc(C(=O)N[C@H](C(=O)O)C3CCCCC3)nn2-c2ccnc3cc(Cl)ccc23)c1 records Emax below 40%.
Result block: yes

Query block: Does the reported Emax of COc1ccccc1-c1cc(C(=O)NC2(C(=O)O)CCCCC2)nn1-c1ccnc2cc(Cl)ccc12 stay below 40%?
Result block: yes

Query block: Identify whether the compound COc1cccc(OC)c1-c1cc(C(=O)N[C@H](C(=O)O)C2CCCCC2)nn1-c1cccc2ccccc12 records Emax below 40%.
Result block: no

Query block: For this compound, is Emax lower than 40%? COc1ccccc1-c1cc(C(=O)NC2(C(=O)O)CCCCC2)nn1-c1cccc2ccccc12
Result block: yes

Query block: Does the reported Emax of COc1cccc(OC)c1-c1cc(C(=O)NC2(C(=O)O)CCCC2)nn1-c1ccnc2cc(Cl)ccc12 stay below 40%?
Result block: no

Query block: Hello, is Emax of the following compound strictly smaller than 40%? COc1cccc(OC)c1-c1cc(C(=O)NC2(C(=O)O)CCCCC2)nn1-c1ccnc2cc(Cl)ccc12
Result block: no

Query block: I'd appreciate it if you could check whether COc1cccc(OC)c1-c1cc(C(=O)NC2(C(=O)O)C3CC4CC(C3)CC2C4)nn1-c1ccc(C(=O)N(C)CCCN(C)C)cc1C(C)C (stereo unspecified) has Emax smaller than 40%.
Result block: no

Query block: # check: Emax < 40% for COc1cccc(OC)c1-c1cc(C(=O)NC2(C(=O)O)CCCCC2)nn1-c1ccc(F)cc1
Result block: yes

Query block: Below 40% on Emax? Entry COc1cccc(OC)c1-c1cc(C(=O)NC2(C(=O)O)C3CC4CC(C3)CC2C4)nn1-c1ccnc2cc(Cl)ccc12 (stereo unspecified)
Result block: no

Query block: Input CCc1c(C(=O)N[C@H](C(=O)O)C2CCCCC2)nn(-c2ccnc3cc(Cl)ccc23)c1-c1c(OC)cccc1OC ; condition: Emax strictly below 40%. Does it hold?
Result block: yes

Query block: Field: below-cutoff. Rule: recorded Emax strictly less than 40%. Subject: C[C@@H]1CN([C@H]2CC[C@](C#N)(c3ccc(F)cc3)CC2)CC[C@]1(C(=O)O)c1ccccc1
Result block: yes

Query block: Lab note: confirm whether the reported Emax for this compound is below 40%, equality not counting. compound: COc1cccc(OC)c1-c1cc(C(=O)NC2(C(=O)O)CCCCCC2)nn1-c1ccnc2cc(Cl)ccc12
Result block: no

Query block: Consider the compound COc1cccc(OC)c1-c1cc(C(=O)N[C@H](C(=O)O)C2CCCCC2)nn1-c1ccnc2cc(Cl)ccc12 . Is its Emax strictly less than 40%?
Result block: no

Query block: Could you please tell me whether Emax recorded for COc1ccc(-c2cc(C(=O)N[C@H](C(=O)O)C3CCCCC3)nn2-c2ccnc3cc(Cl)ccc23)c(OC)c1 is less than 40%?
Result block: yes

Query block: For this compound, is Emax lower than 40%? COc1cccc(OC)c1-c1cc(C(=O)N[C@H](C(=O)O)C2CCCCC2)nn1-c1ccc(F)cc1
Result block: yes

Query block: Record COc1cccc(OC)c1-c1cc(C(=O)NC2(C(=O)O)C3CC4CC(C3)CC2C4)nn1-c1ccc(F)cc1 (stereo unspecified) : is its Emax strictly below 40%?
Result block: yes

###

MEASURED TARGET: Neurotensin receptor type 1 (Rattus norvegicus)
EXPERIMENTAL PROTOCOL: Antagonist activity at rat NTS1 stably expressed in CHOK1 cells assessed as inhibition of NT-induced calcium release by FLIPR assay
Format: functional, cell-based
STUDY CONDITIONS: CHO-K1
REPORTED ENDPOINT: log10(Ke) (log10 of the value in nM)
Could you please treat all values as log10 of Ke in nM?

Query block: // Input: COc1ccccc1-c1cc(C(=O)N[C@H](C(=O)O)C2CCCCC2)nn1-c1cccc2ccccc12 . Output its log10(Ke) only.
Result block: 3.15

Query block: Could you please provide reported log10(Ke) for COc1ccccc1-c1cc(C(=O)N[C@H](C(=O)O)C2CCCCC2)nn1-c1ccnc2cc(Cl)ccc12 ? Thanks!
Result block: 3.23

Query block: Consider the molecule COc1ccccc1-c1cc(C(=O)NC2(C(=O)O)CCCCC2)nn1-c1ccnc2cc(Cl)ccc12 . State its measured log10(Ke).
Result block: 3.66

Query block: Read the entry COc1cccc(OC)c1-c1cc(C(=O)NC2(C(=O)O)CCCCCC2)nn1-c1ccnc2cc(Cl)ccc12 and write its reported log10(Ke).
Result block: 1.62

Query block: For the molecule COc1cccc(OC)c1-c1cc(C(=O)NC2(C(=O)O)C3CC4CC(C3)CC2C4)nn1-c1ccc(F)cc1 (stereo not drawn) , report log10(Ke).
Result block: 2.28

Query block: Recall and state the measured log10(Ke) for COc1cccc(OC)c1-c1cc(C(=O)NC2(C(=O)O)CCCC2)nn1-c1ccnc2cc(Cl)ccc12 .
Result block: 2.35

Query block: Determine from records and report log10(Ke) for COc1ccc(OC)c(-c2cc(C(=O)N[C@H](C(=O)O)C3CCCCC3)nn2-c2ccnc3cc(Cl)ccc23)c1
Result block: 3.11

Query block: Please report log10(Ke) for the following molecule: COc1cccc(OC)c1-c1cc(C(=O)N[C@H](C(=O)O)C2CCCCC2)nn1-c1ccnc2cc(Cl)ccc12
Result block: 1.36

Query block: Read off the recorded log10(Ke) for COc1cccc(OC)c1-c1cc(C(=O)N[C@H](C(=O)O)C2CCCCC2)nn1-c1cccc2ccccc12
Result block: 1.76

Query block: Return reported log10(Ke). Input molecule: COc1cccc(OC)c1-c1cc(C(=O)N[C@H](C(=O)O)C2CCCCC2)nn1-c1ccc(F)cc1
Result block: 3.52

Query block: Indicate its recorded log10(Ke); the molecule in question is COc1ccccc1-c1cc(C(=O)NC2(C(=O)O)CCCCC2)nn1-c1cccc2ccccc12
Result block: 3.87

Query block: Report measured log10(Ke); entry is COc1cccc(OC)c1-c1cc(C(=O)NC2(C(=O)O)CCCCC2)nn1-c1cccc2ccccc12
Result block: 2.36

Query block: Give log10(Ke) for COc1cccc(OC)c1-c1cc(C(=O)NC2(C(=O)O)CCCCC2)nn1-c1ccnc2cc(Cl)ccc12
Result block: 2.20

Where these numbers come from: ChEMBL document CHEMBL3286167
